Reference for the values: patent US20260125360A1

Provide the reported percentage damage caused to the plant, IPOHE (five-point scale) of each item.
- Tested on: Ipomoea hederacea (IPOHE)
- ASSAY_REMARKS: Pre-emergence herbicide glasshouse test
- Format: in vivo
- COND: 250 g/ha, evaluated after 13 days

Would you mind telling me what percentage damage caused to the plant, IPOHE (five-point scale) value was observed for Cn1cnc(Cn2cc(C#N)nc2-c2ccc(F)c(F)c2)n1 [Compound 1.184] ?
5 (5=81-100%)

Now try Cc1cc(Cn2cc(C(F)(F)F)nc2-c2cnc(Cl)c(F)c2)no1 [Compound 1.025] .
4 (4=61-80%)

Same question, Cc1cc(Cn2cc(C(F)(F)F)nc2-c2ccc(C(F)(F)F)cc2)no1 [Compound 1.013] this time
5 (5=81-100%)

Follow-up item: CN(C)S(=O)(=O)c1cc(Cn2cc(C(F)(F)F)nc2-c2ccc(Cl)nc2)co1 [Compound 1.144]
1 (1=0-20%)

Next: FC(F)(F)c1ccc(-c2nc(C(F)(F)F)cn2Cc2ccno2)cc1 [Compound 1.009]
1 (1=0-20%)

---

- System: Echinochloa crus-galli (ECHCG)
- ASSAY_REMARKS: Pre-emergence herbicide glasshouse test
- Assay type: in vivo
- COND: 250 g/ha, evaluated after 13 days
TEST_READOUT: percentage damage caused to the plant, ECHCG (five-point scale)

Form entry - test system: Echinochloa crus-galli (ECHCG); read-out: percentage damage caused to the plant, ECHCG (five-point scale); compound: Cc1cc(Cn2cc(C(F)(F)F)nc2-c2ccc(Cl)nc2)n(C)n1 [Compound 1.147]
1 (1=0-20%)

Similarly, Cn1cnc(Cn2cc(C#N)nc2-c2cnc(Cl)c(F)c2)n1 [Compound 1.182] ?
4 (4=61-80%)

Cool, now Cc1nnc(Cn2cc(C(F)(F)F)nc2-c2cnc(Cl)c(F)c2)s1 [Compound 1.017]
4 (4=61-80%)

And for Cn1ccc(Cn2cc(C(F)(F)F)nc2-c2ccc(Cl)nc2)n1 [Compound 1.045] ?
1 (1=0-20%)

---

Provide the recorded percentage damage caused to the plant, ECHCG (five-point scale) for the entries that follow.
- Test system: Echinochloa crus-galli (ECHCG)
- ASSAY_REMARKS: Pre-emergence herbicide glasshouse test
- Assay type: in vivo
- COND: 250 g/ha, evaluated after 13 days

# percentage damage caused to the plant, ECHCG (five-point scale) lookup, item Cn1cnc(Cn2cc(C(F)(F)F)nc2-c2cnc(F)c(Cl)c2)n1
5 (5=81-100%)

What do you have for Cc1coc(Cn2cc(C(F)(F)F)nc2-c2ccc(Cl)nc2)n1 ?
5 (5=81-100%)

Could you do the same for Cc1noc(C)c1Cn1cc(C(F)(F)F)nc1-c1ccc(Cl)nc1 , please?
1 (1=0-20%)

Item: Cn1cnc(Cn2cc(C(F)(F)F)nc2-c2cnc(Cl)c(F)c2)n1
5 (5=81-100%)

Now the same for Cc1nnc(Cn2cc(C(F)F)nc2-c2cnc(Cl)c(F)c2)s1
1 (1=0-20%)

Also FC(F)(F)c1cn(Cc2ccns2)c(-c2ccc(Cl)nc2)n1 ?
1 (1=0-20%)

# iterate: Cc1nnc(Cn2cc(C(F)(F)F)nc2-c2cnc(F)c(Cl)c2)s1
4 (4=61-80%)

Follow-up item: COCCc1noc(Cn2cc(C(F)(F)F)nc2-c2ccc(C(F)(F)F)cc2)n1
1 (1=0-20%)

Do the same for FC(F)(F)c1ccc(-c2nc(C(F)(F)F)cn2Cc2ccno2)cc1 please
1 (1=0-20%)

Please do the same for CCn1ccc(Cn2cc(C(F)(F)F)nc2-c2ccc(Cl)nc2)n1 as well.
1 (1=0-20%)

Next entry: Cc1nnc(Cn2cc(C(F)(F)F)nc2-c2ccc(Cl)nc2)s1
1 (1=0-20%)

Entry to check: Cc1cc(Cn2cc(C(F)(F)F)nc2-c2ccc(S(C)(=O)=O)cc2)no1
5 (5=81-100%)

What about FC(F)(F)c1ccc(-c2nc(C(F)(F)F)cn2Cc2nsc(Cl)n2)cc1 ?
1 (1=0-20%)

Ok, now Cc1nc(Cn2cc(C(F)(F)F)nc2-c2ccc(C(F)(F)F)cc2)cs1
1 (1=0-20%)

Proceed to Cn1ccc(Cn2cc(C(F)(F)F)nc2-c2cnc(F)c(Cl)c2)n1
5 (5=81-100%)

Consider next the compound Cc1noc(Cn2cc(C(F)(F)F)nc2-c2ccc(C(F)(F)F)cc2)n1 in the same way.
1 (1=0-20%)

Next record, please: Cn1cnc(Cn2cc(C(F)(F)F)nc2-c2ccc(F)c(F)c2)n1
5 (5=81-100%)

What about this compound? CC(C)(C)c1csc(Cn2cc(C(F)(F)F)nc2-c2ccc(Cl)nc2)n1
1 (1=0-20%)

---

- Tested on: Echinochloa crus-galli (ECHCG)
- ASSAY_REMARKS: Pre-emergence herbicide glasshouse test
- Format: in vivo
- COND: 250 g/ha, evaluated after 13 days
What percentage damage caused to the plant, ECHCG (five-point scale) was measured for each of the following?

Could you tell me which percentage damage caused to the plant, ECHCG (five-point scale) is on file for Cn1nnc(Cn2cc(C(F)(F)F)nc2-c2ccc(Cl)nc2)c1C(F)F [Compound 1.070] ?
1 (1=0-20%)

Try Cc1nc(Cn2cc(C(F)(F)F)nc2-c2ccc(F)c(F)c2)no1 [Compound 1.168] next.
5 (5=81-100%)

Follow-up entry: CCn1cc(Cl)c(Cn2cc(C(F)(F)F)nc2-c2ccc(Cl)nc2)n1 [Compound 1.100]
1 (1=0-20%)

// next record Cc1nnc(Cn2cc(C(F)(F)F)nc2-c2ccc(F)c(F)c2)o1 [Compound 1.183]
3 (3=41-60%)

Please give the result for CS(=O)(=O)c1ccc(-c2nc(C(F)(F)F)cn2Cc2ccc(Cl)s2)cc1 [Compound 1.175] too.
2 (2=21-40%)

Again, but for CCn1nnc(Cn2cc(C(F)(F)F)nc2-c2ccc(Cl)nc2)n1 [Compound 1.086]
5 (5=81-100%)

Try Cc1noc(Cn2cc(C(F)(F)F)nc2-c2cnc(Cl)c(F)c2)n1 [Compound 1.166] next.
1 (1=0-20%)

Lookup Cn1cnc(Cn2cc(C(F)F)nc2-c2cnc(Cl)c(F)c2)n1 [Compound 1.015]
4 (4=61-80%)

Next compound up: Cc1noc(Cn2cc(C(F)(F)F)nc2-c2ccc(F)c(F)c2)n1 [Compound 1.169]
4 (4=61-80%)

Moving on to Cn1ccc(Cn2cc(C(F)(F)F)nc2-c2ccc(S(C)(=O)=O)cc2)n1 [Compound 1.171]
1 (1=0-20%)

Thanks! And Fc1ccc(-c2nc(C(F)(F)F)cn2Cc2ccc(Cl)s2)cc1F [Compound 1.173] ?
1 (1=0-20%)

Would you kindly repeat that for FC(F)(F)c1cn(Cc2ccc(Cl)s2)c(-c2ccc(Cl)nc2)n1 [Compound 1.117] ?
1 (1=0-20%)

Next: Cc1noc(C)c1Cn1cc(C(F)(F)F)nc1-c1ccc(C(F)(F)F)cc1 [Compound 1.005]
1 (1=0-20%)

Now the same for Cc1nnc(Cn2cc(C(F)(F)F)nc2-c2ccc([S+](C)[O-])cc2)s1 (stereo not drawn) [Compound 1.178]
1 (1=0-20%)

// repeat for CC(C)c1noc(Cn2cc(C(F)(F)F)nc2-c2ccc(Cl)nc2)n1 [Compound 1.139] and report
1 (1=0-20%)

Now give it for Cc1nc(Cn2cc(C(F)(F)F)nc2-c2ccc(C(F)(F)F)cc2)co1 [Compound 1.012] too.
1 (1=0-20%)

What do you have for Cc1cc(Cn2cc(C(F)(F)F)nc2-c2cnc(Cl)c(F)c2)no1 [Compound 1.025] ?
4 (4=61-80%)

Try this compound next: CCc1nc(Cn2cc(C(F)(F)F)nc2-c2ccc(Cl)nc2)no1 [Compound 1.090]
4 (4=61-80%)

---

Kindly supply the reported percentage damage caused to the plant, IPOHE (five-point scale) values for the records listed here.
- Tested on: Ipomoea hederacea (IPOHE)
- ASSAY_REMARKS: Pre-emergence herbicide glasshouse test
- Assay type: in vivo
- COND: 250 g/ha, evaluated after 13 days

percentage damage caused to the plant, IPOHE (five-point scale) for Cc1cc(Cn2cc(C#N)nc2-c2cnc(Cl)c(F)c2)no1 ?
4 (4=61-80%)

What do we get for Cn1cnc(Cn2cc(C(F)(F)F)nc2-c2ccc(C(F)(F)F)cc2)n1 ?
5 (5=81-100%)

One more molecule: Cn1cc(Cn2cc(C(F)(F)F)nc2-c2ccc(C(F)(F)F)cc2)c(C(F)(F)F)n1
1 (1=0-20%)

Item: CCON=Cc1cn(Cc2ncn(C)n2)c(-c2cnc(Cl)c(F)c2)n1
5 (5=81-100%)

And for Cc1nc(Cn2cc(C(F)(F)F)nc2-c2ccc(C(F)(F)F)cc2)cs1 ?
2 (2=21-40%)

Same question, Cc1noc(C)c1Cn1cc(C(F)(F)F)nc1-c1ccc(Cl)nc1 this time
1 (1=0-20%)

Quick one: Cn1cnc(Cn2cc(C(F)(F)F)nc2-c2ccc(S(C)(=O)=O)cc2)n1
5 (5=81-100%)

Request: Cn1ccc(Cn2cc(C(F)(F)F)nc2-c2cnc(F)c(Cl)c2)n1
5 (5=81-100%)
